test system: DENV-1; assay: Viral yield assay against DENV-1 in Vero cells; assay type: cell-based; details: Dengue virus, DENV1, viral yield assay
observationType: EC50

> print(dat)
                       smilesrepresentation  observationtype  readoutvalue
1  Nc1c(C(=O)Nc2ccc(Cl)cc2)sc2nc(-c3ccc(F)cc3)ccc12             EC50        < 5 µM
2  COc1ccc(-c2ccc3c(N)c(C(=O)Nc4ccc(C)cc4C)sc3n2)cc1OC             EC50        < 5 µM
3  COc1ccc(-c2ccc3c(N)c(C(=O)Nc4ccc(C(F)(F)F)cc4)sc3n2)cc1OC             EC50        < 5 µM
4  COC(OC)c1ccc2c(N)c(C(=O)Nc3ccc(C(F)(F)F)cc3)sc2n1             EC50        < 5 µM
